system_name: human 5HT2A receptor (Homo sapiens, UniProt P28223)
Construct: expressed in transfected cells; host or cells: HEK cells
Sequence (P28223 whole entry): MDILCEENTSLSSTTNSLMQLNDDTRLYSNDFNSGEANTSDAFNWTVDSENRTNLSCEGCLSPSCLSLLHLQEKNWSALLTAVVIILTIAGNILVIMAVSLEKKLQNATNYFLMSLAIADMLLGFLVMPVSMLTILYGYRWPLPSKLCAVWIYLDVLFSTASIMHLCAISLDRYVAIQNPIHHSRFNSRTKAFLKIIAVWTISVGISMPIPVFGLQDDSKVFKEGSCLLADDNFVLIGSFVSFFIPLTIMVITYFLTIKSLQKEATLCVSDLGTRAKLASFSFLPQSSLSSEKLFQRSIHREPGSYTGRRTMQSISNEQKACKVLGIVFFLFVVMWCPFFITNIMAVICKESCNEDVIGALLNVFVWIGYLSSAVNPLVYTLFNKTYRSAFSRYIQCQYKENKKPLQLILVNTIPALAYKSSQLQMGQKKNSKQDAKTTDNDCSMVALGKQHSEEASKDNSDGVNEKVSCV
procedure_text: h5HT2A receptors: [125I]DOI binding
condition: cells printed in μM under a head in nM; read-out: 5-HT2A [^125I]DOI Ki (nM) ± SEM
Procedure: Method: Human embryonic kidney cells expressing the human 5HT2A receptor (HEK-h5HT2A) or human 5HT2C receptor (HEK-h5HT2C) were used. The cells were grown until confluent on 15 cm plates. […] The reaction was incubated for 1 hour at 37° C., and terminated by filtration through Wallac A filtermats presoaked in 0.05% polyethylenimine using a Tomtec 96-well harvester. Radioactivity remaining on filters was counted in a Wallac betaplate reader. IC50 values were calculated using GraphPad Prism. […]
readout_name: Ki

Reference set (6 entries):
molecule="CCOC(=O)[C@@H]1CN(CCn2c(=O)[nH]c3ccccc3c2=O)CC[C@@H]1c1ccc(C(C)O)cc1 (mixture of isomers)" readout_name=Ki observed_result="> 10 µM"
molecule="CCOC(=O)[C@H]1CN(CCn2c(=O)[nH]c3ccccc3c2=O)CC[C@H]1c1cccc(N(C)C)c1 (racemic)" readout_name=Ki observed_result="> 10 µM"
molecule="CCOC(=O)[C@@H]1CN(CCn2c(=O)[nH]c3ccccc3c2=O)CC[C@@H]1c1ccc(F)cc1 (racemic)" readout_name=Ki observed_result="> 2 µM"
molecule="CCOC(=O)[C@@H]1CN(CCn2c(=O)[nH]c3ccccc3c2=O)CC[C@@H]1c1cccc(C(F)(F)F)c1 (racemic)" readout_name=Ki observed_result="> 10 µM"
molecule="CCOC(=O)[C@@H]1CN(CCn2c(=O)[nH]c3ccccc3c2=O)CC[C@@H]1c1ccc(C)cc1 (racemic)" readout_name=Ki observed_result="> 10 µM"
molecule="CCOC(=O)[C@@H]1CN(CCn2c(=O)[nH]c3ccccc3c2=O)CC[C@@H]1c1ccc(C(F)(F)F)cc1 (racemic)" readout_name=Ki observed_result="> 10 µM"

Input: Requested field: Ki. Item: CCOC(=O)c1ccc([C@H]2CCN(CCn3c(=O)[nH]c4ccccc4c3=O)C[C@H]2C(=O)OCC)cc1 (racemic)
Output: > 10 µM

----------
system_name: recombinant human norepinephrine transporter (hNET) (Homo sapiens, UniProt P23975)
Construct: expressed in transfected cells; host or cells: HEK cells
Sequence (P23975 whole entry): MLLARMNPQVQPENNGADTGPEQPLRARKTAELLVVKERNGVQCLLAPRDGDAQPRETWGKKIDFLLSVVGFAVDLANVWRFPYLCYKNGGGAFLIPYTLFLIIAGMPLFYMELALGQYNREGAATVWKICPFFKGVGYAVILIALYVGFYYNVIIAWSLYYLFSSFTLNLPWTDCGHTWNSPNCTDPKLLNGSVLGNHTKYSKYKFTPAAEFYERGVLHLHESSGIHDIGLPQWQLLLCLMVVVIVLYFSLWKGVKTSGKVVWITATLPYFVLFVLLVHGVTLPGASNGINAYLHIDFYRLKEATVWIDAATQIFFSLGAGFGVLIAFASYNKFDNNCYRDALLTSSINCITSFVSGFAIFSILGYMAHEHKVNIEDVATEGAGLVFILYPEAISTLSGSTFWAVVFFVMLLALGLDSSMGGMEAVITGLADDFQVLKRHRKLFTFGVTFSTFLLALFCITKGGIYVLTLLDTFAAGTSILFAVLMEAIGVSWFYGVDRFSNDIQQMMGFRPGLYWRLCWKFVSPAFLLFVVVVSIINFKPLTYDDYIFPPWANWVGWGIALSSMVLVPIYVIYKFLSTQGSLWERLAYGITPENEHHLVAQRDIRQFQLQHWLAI
procedure_text: [125I]RTI-55 binding, HEK-hNET
condition: used in Cheng-Prusoff equation
readout_name: pKd
Reminder that pKd means the negative base-10 logarithm of the concentration expressed in mol/L.

Input: What measured pKd goes with COC(=O)[C@H]1[C@@H](c2ccc(I)cc2)C[C@@H]2CC[C@H]1N2C [[^125I]RTI-55] ?
Output: 7.92

----------
system_name: human 5HT1A receptor (Homo sapiens)
Construct: expressed in transfected cells; host or cells: HEK cells (G418 selection)
Sequence (P08908 whole entry): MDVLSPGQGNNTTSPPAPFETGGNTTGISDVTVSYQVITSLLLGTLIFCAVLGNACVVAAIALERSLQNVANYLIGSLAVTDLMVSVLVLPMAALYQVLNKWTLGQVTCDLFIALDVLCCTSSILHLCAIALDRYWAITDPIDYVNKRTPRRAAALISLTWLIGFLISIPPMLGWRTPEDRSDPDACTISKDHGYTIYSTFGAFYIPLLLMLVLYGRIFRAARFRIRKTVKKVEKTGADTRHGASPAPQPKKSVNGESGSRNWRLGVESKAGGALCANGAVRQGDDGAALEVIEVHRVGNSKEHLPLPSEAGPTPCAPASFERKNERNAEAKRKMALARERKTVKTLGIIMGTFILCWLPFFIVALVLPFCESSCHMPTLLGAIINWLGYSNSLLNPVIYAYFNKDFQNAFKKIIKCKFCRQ
procedure_text: h5HT1A receptors: [3H]8-OH-DPAT binding
condition: HEK-h5HT1A homogenate; read-out: 5-HT1A [^3H] 8—OH DPAT Ki(nM) ± SEM
readout_name: Ki (nM)
Write the number in nM without appending the unit.

Input: Please report the recorded Ki for O=c1[nH]c2ccccc2c(=O)n1CCN1CC=C(c2ccccc2)CC1 .
Output: 197

----------
system_name: UniProt Q05940
Sequence (Q05940 whole entry): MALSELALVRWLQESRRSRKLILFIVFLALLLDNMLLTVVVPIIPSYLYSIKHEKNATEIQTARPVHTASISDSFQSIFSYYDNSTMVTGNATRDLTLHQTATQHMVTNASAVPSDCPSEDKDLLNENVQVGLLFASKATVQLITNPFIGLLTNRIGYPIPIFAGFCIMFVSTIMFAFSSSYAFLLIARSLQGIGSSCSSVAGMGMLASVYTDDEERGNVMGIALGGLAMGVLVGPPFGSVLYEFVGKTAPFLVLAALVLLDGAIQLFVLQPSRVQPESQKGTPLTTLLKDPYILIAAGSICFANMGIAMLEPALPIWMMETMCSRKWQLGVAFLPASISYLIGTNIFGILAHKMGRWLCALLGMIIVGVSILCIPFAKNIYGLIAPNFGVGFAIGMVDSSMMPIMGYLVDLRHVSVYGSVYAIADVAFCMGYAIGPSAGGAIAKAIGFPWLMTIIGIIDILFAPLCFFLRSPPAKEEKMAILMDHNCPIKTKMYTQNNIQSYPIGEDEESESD
procedure_text: hVMAT2 5HT Uptake
Type: biochemical
Set-up: expressed in transfected cells; host or cells: HEK (human embryonic kidney) cells
condition: cells printed in μM under a head in nM; read-out: hVMAT2 5HT Uptake IC50 (nM) ± SEM
The following compounds are listed with their measured IC50 values.

// known answers, use as guide
compound=O=C(c1ccc(F)cc1)C1CCN(CCn2c(=O)[nH]c3ccc(Br)cc3c2=O)CC1 observed_result="> 2 µM"
compound="CCOC(=O)[C@H]1CN(CCn2c(=O)[nH]c3ccccc3c2=O)CC[C@H]1c1ccc(OC)c(OC)c1 (racemic)" observed_result="> 3 µM"
compound="CCOC(=O)[C@H]1CN(CCn2c(=O)[nH]c3ccccc3c2=O)CC[C@H]1c1cccc(N(C)C)c1 (racemic)" observed_result="> 5 µM"

We next turn to a different compound, shown below.
Input: Please report the recorded IC50 for CCOC(=O)[C@H]1CN(CCn2c(=O)[nH]c3ccccc3c2=O)CC[C@H]1c1ccccc1N(C)C (racemic) .
Output: > 2 µM
